residual activity values, listed per item
Molecular target: STK38 (human) (UniProt Q15208)
Sequence (Q15208 whole entry, looked up): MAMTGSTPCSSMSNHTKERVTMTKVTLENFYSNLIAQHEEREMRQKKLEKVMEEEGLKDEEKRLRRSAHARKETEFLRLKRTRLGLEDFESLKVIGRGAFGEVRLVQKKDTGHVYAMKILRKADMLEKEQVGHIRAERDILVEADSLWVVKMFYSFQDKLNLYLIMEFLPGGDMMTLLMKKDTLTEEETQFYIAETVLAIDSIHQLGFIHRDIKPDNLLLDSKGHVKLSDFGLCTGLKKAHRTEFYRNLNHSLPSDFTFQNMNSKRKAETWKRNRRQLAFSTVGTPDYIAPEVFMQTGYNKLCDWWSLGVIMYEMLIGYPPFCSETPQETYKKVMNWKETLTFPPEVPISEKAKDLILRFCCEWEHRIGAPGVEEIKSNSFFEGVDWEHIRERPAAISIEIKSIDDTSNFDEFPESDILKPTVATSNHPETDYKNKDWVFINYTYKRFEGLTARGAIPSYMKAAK
Test: radiometric filter-binding kinase assay, Kinase HotSpot
Conditions: compound 0.5 µM; ATP 10 µM
Number only, in %; omit the unit.

O=C1NC(=O)/C(=C/c2ccc3c(c2)OC(F)(F)O3)S1 : 107
CO[C@H]1CC2CC[C@@H](C)[C@@](O)(O2)C(=O)C(=O)N2CCCC[C@H]2C(=O)OC([C@H](C)C[C@@H]2CC[C@@H](O)[C@H](OC)C2)CC(=O)[C@H](C)/C=C(\C)[C@@H](O)[C@@H](OC)C(=O)[C@H](C)C[C@H](C)/C=C/C=C/C=C/1C (stereo not given in full) : 92.8
O=C1Nc2ccc(Cl)cc2/C1=C/c1cc(Cl)c(O)c(Cl)c1 : 85.4
Nc1ccc2ncnc(NCCc3ccc(Oc4ccccc4)cc3)c2c1 : 97.9
Oc1cccc(-c2nc(N3CCOCC3)c3oc4ncccc4c3n2)c1 : 99

Q: What measured residual activity goes with `CCN(CC)CCNC(=O)c1c(C)[nH]c(/C=C2\C(=O)Nc3ccc(F)cc32)c1C` ?
Ans: 93.8

Q: What measured residual activity goes with `CNc1cc2c(Nc3cccc(Br)c3)ncnc2cn1` ?
Ans: 98.5

Q: What measured residual activity goes with `CCCC(=O)Oc1ccc2[nH]c(C(=O)c3cc4ccccc4[nH]3)cc2c1` ?
Ans: 96.9

Q: What measured residual activity goes with `c1ccc(-c2n[nH]cc2-c2ccnc3ccccc23)nc1` ?
Ans: 111

Q: What measured residual activity goes with `COc1cc2ncnc(Nc3cccc(Cl)c3)c2cc1OC` ?
Ans: 104

* * *

Target: UniProtKB P24723
Sequence (P24723 whole entry, looked up): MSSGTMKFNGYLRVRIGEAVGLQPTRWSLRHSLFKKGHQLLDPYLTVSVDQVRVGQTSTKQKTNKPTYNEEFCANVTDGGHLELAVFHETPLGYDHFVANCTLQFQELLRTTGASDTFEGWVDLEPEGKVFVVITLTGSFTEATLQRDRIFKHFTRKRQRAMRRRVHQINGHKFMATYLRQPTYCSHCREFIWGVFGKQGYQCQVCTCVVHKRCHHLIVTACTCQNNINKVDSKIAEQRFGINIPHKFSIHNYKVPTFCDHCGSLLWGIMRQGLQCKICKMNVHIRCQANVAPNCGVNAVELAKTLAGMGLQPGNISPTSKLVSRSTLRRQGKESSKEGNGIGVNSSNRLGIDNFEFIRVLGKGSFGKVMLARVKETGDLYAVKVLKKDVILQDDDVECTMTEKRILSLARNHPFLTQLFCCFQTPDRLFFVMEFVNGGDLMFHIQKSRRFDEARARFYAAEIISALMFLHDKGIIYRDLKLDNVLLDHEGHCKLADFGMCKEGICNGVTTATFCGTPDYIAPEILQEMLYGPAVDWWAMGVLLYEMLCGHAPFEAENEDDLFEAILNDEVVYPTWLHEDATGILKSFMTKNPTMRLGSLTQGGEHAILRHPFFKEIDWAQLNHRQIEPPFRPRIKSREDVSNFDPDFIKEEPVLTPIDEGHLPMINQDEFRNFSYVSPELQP
Test: radiometric filter-binding kinase assay, Kinase HotSpot
Conditions: compound 0.5 µM; ATP 10 µM
measured.endpoint: residual activity (%)
Number only, in %; omit the unit.

Known results for molecules:
Nc1ccc2ncnc(NCCc3ccc(Oc4ccccc4)cc3)c2c1 : 97.9
CNC(=O)c1cc(Oc2ccc(NC(=O)Nc3ccc(Cl)c(C(F)(F)F)c3)cc2)ccn1 : 107
Nc1ncnc2[nH]nc(Nc3ccc(F)cc3)c12 : 84.7
O=C(Nc1nc2ccccc2n1CCN1CCOCC1)c1cccc([N+](=O)[O-])c1 : 94.9
Cc1[nH]c(/C=C2\C(=O)Nc3ccc(S(=O)(=O)N(C)c4cccc(Cl)c4)cc32)c(C)c1C(=O)N1CCN(C)CC1 : 88.7

Q: What measured residual activity goes with `CC(=O)c1ccc(N2CCOCC2)cc1O` ?
Ans: 99.3

* * *

residual activity values, listed per item
Target: PTK2 (human)
Assay: radiometric filter-binding kinase assay, Kinase HotSpot
Settings: compound 0.5 µM; ATP 10 µM
Number only, in %; omit the unit.

Known results for compounds:
Nc1ncnc2c1c(-c1ccc(Oc3ccccc3)cc1)cn2C1CCCC1 : 93.9
CC[n+]1c(/C=C/N(C)c2ccccc2)n(-c2ccccc2)c2ccc(-c3nc4ccccc4s3)cc21 : 108
CNc1cc2c(Nc3cccc(Br)c3)ncnc2cn1 : 90.2
COc1cc2ncnc(Nc3cccc(Cl)c3)c2cc1OC : 95.1

Q: What measured residual activity goes with `Nc1ccc2ncnc(NCCc3ccc(Oc4ccccc4)cc3)c2c1` ?
Ans: 98.6

Q: What measured residual activity goes with `CCOC(=O)c1c(C)[nH]c(/C=C2\C(=O)Nc3ccccc32)c1C` ?
Ans: 93

Q: What measured residual activity goes with `CNC(=O)c1cc(Oc2ccc(NC(=O)Nc3ccc(Cl)c(C(F)(F)F)c3)cc2)ccn1` ?
Ans: 102

Q: What measured residual activity goes with `Cc1ccc(Nc2nccc(N(C)c3ccc4c(C)n(C)nc4c3)n2)cc1S(N)(=O)=O` ?
Ans: 76

Q: What measured residual activity goes with `N#CC(C#N)=C(N)/C(C#N)=C/c1ccc(O)cc1` ?
Ans: 98.5

Q: What measured residual activity goes with `CCN(CC)CCNC(=O)c1c(C)[nH]c(/C=C2\C(=O)Nc3ccc(Cl)cc32)c1C` ?
Ans: 25.8

* * *

Target: CDK4 CCND3 (human) (UniProt P30281+P11802)
Sequence (P11802 whole entry, looked up, one chain of several): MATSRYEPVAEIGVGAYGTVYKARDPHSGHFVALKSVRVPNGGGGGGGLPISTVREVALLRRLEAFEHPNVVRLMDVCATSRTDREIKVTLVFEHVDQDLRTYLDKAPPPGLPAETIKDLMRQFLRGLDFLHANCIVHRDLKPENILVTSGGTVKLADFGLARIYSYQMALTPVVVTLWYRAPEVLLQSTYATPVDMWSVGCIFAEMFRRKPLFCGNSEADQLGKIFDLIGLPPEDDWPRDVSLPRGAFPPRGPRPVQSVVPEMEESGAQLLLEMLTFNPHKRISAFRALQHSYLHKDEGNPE
Assay: radiometric filter-binding kinase assay, Kinase HotSpot
Conditions: compound 0.5 µM; ATP 10 µM
measured.endpoint: residual activity (%)
Number only, in %; omit the unit.

Known results for compounds:
O=C1NC(=O)/C(=C/c2ccc3c(c2)OC(F)(F)O3)S1 : 98.2
COc1ccc2c(c[n+](C)c3c4cc5c(cc4ccc23)OCO5)c1OC : 98.8
CC[n+]1c(/C=C/N(C)c2ccccc2)n(-c2ccccc2)c2ccc(-c3nc4ccccc4s3)cc21 : 102
CCOC(=O)c1c(C)[nH]c(/C=C2\C(=O)Nc3ccccc32)c1C : 106

Q: Query the reported residual activity for CDK4 CCND3 (human) (UniProt P30281+P11802); item: `N#C/C(=C(/N)Sc1ccc(N)cc1)c1ccccc1C(F)(F)F`
Ans: 108

* * *

residual activity values, listed per item
Target: CDK6 CCND3 (human) (UniProt P30281+Q00534)
Sequence (P30281 whole entry, looked up): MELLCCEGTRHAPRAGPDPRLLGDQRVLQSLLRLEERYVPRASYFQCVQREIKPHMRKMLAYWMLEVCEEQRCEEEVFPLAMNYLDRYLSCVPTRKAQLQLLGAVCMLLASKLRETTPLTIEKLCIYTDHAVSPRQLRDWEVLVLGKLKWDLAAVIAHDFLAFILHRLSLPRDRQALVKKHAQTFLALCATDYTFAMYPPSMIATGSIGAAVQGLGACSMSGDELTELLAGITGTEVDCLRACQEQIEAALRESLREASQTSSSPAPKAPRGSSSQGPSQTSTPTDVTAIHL
Sequence (Q00534 whole entry, looked up): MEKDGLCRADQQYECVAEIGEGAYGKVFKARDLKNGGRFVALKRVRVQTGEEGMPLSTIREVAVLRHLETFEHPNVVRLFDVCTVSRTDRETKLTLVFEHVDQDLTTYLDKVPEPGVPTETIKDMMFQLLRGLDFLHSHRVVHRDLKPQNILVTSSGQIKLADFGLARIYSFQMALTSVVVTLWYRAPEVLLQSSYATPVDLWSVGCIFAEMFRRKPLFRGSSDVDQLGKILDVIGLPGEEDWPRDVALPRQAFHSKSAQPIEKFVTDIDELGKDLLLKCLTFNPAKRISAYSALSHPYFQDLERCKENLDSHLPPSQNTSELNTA
Experiment: radiometric filter-binding kinase assay, Kinase HotSpot
Settings: compound 0.5 µM; ATP 10 µM
Number only, in %; omit the unit.

Q: Query the reported residual activity for CDK6 CCND3 (human) (UniProt P30281+Q00534); item: `COc1ccc2c(c[n+](C)c3c4cc5c(cc4ccc23)OCO5)c1OC`
Ans: 94.6

* * *

Target: PDPK1 (human) (UniProt O15530)
Sequence (O15530 whole entry, looked up): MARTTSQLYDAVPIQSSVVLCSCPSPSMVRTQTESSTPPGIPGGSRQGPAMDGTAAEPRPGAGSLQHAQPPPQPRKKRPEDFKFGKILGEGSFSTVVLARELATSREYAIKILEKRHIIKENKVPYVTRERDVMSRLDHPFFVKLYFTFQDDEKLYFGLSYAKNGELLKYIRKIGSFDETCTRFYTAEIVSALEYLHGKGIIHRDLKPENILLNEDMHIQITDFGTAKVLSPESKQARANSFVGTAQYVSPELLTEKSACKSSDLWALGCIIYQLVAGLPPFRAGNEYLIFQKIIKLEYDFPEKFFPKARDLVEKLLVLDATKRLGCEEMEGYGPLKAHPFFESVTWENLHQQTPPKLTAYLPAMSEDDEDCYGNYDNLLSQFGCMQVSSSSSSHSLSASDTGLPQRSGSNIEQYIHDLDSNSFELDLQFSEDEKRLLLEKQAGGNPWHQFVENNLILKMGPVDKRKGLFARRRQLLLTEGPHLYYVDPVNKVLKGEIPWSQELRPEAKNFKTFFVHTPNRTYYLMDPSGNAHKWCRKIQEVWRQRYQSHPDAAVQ
Assay: radiometric filter-binding kinase assay, Kinase HotSpot
Conditions: compound 0.5 µM; ATP 10 µM
residual activity values, listed per item

CC(=O)c1ccc(N2CCOCC2)cc1O : 111%
N#CC(C#N)=C(N)/C(C#N)=C/c1ccc(O)cc1 : 99.4%
O=C1NC(=O)C(c2cn(CCCn3ccnc3)c3ccccc23)=C1Nc1ccccc1 : 80.3%
c1ccc(-c2n[nH]cc2-c2ccnc3ccccc23)nc1 : 93.8%
CC#CC(=O)Nc1cc2c(Nc3ccc(F)c(Cl)c3)ncnc2cn1 : 99.6%
CCOC(=O)c1c(C)[nH]c(/C=C2\C(=O)Nc3ccccc32)c1C : 92.5%
O=C(Nc1cccc(Nc2nccc(Nc3cccc(C(F)(F)F)c3)n2)c1)C1CC1 : 104%
COc1ccc(COc2ccc(Cc3cnc(N)nc3N)cc2OC)cc1 : 89.4%

Q: What measured residual activity goes with `Nc1ncnc2c1c(-c1ccc(Oc3ccccc3)cc1)cn2C1CCCC1` ?
Ans: 102%

Q: What measured residual activity goes with `O=C1Nc2ccc(Cl)cc2/C1=C/c1cc(Cl)c(O)c(Cl)c1` ?
Ans: 103%

Q: What measured residual activity goes with `COc1ccc2c(c[n+](C)c3c4cc5c(cc4ccc23)OCO5)c1OC` ?
Ans: 98.2%

Q: What measured residual activity goes with `CCN(CC)CCNC(=O)c1c(C)[nH]c(/C=C2\C(=O)Nc3ccc(F)cc32)c1C` ?
Ans: 81.6%

Q: What measured residual activity goes with `N#C/C(=C(/N)Sc1ccc(N)cc1)c1ccccc1C(F)(F)F` ?
Ans: 103%

Q: What measured residual activity goes with `CNc1cc2c(Nc3cccc(Br)c3)ncnc2cn1` ?
Ans: 97.7%

* * *

Biological target: DCLK2 (human)
Experiment: radiometric filter-binding kinase assay, Kinase HotSpot
Conditions: compound 0.5 µM; ATP 10 µM
measured.endpoint: residual activity (%)
Number only, in %; omit the unit.

COc1cc2ncnc(Nc3cccc(Cl)c3)c2cc1OC : 94.7
Nc1ccc2ncnc(NCCc3ccc(Oc4ccccc4)cc3)c2c1 : 99.1
O=C1Nc2ccc(Cl)cc2/C1=C/c1cc(Cl)c(O)c(Cl)c1 : 98
O=C(Nc1cccc(Nc2nccc(Nc3cccc(C(F)(F)F)c3)n2)c1)C1CC1 : 97.4
COc1ccc(COc2ccc(Cc3cnc(N)nc3N)cc2OC)cc1 : 101
Cc1ccc(NC2=CC(=O)c3sc(C)nc3C2=O)cc1 : 95.3
CO[C@H]1CC2CC[C@@H](C)[C@@](O)(O2)C(=O)C(=O)N2CCCC[C@H]2C(=O)OC([C@H](C)C[C@@H]2CC[C@@H](O)[C@H](OC)C2)CC(=O)[C@H](C)/C=C(\C)[C@@H](O)[C@@H](OC)C(=O)[C@H](C)C[C@H](C)/C=C/C=C/C=C/1C (stereo partly specified) : 99.2
CCN(CC)CCNC(=O)c1c(C)[nH]c(/C=C2\C(=O)Nc3ccc(F)cc32)c1C : 85

Q: What measured residual activity goes with `Oc1cccc(-c2nc(N3CCOCC3)c3oc4ncccc4c3n2)c1` ?
Ans: 102

Q: What measured residual activity goes with `c1ccc(-c2n[nH]cc2-c2ccnc3ccccc23)nc1` ?
Ans: 97.4

Q: What measured residual activity goes with `CCCC(=O)Oc1ccc2[nH]c(C(=O)c3cc4ccccc4[nH]3)cc2c1` ?
Ans: 89.2

* * *

Target: CAMK1D (human) (UniProt Q8IU85)
Sequence (Q8IU85 whole entry, looked up): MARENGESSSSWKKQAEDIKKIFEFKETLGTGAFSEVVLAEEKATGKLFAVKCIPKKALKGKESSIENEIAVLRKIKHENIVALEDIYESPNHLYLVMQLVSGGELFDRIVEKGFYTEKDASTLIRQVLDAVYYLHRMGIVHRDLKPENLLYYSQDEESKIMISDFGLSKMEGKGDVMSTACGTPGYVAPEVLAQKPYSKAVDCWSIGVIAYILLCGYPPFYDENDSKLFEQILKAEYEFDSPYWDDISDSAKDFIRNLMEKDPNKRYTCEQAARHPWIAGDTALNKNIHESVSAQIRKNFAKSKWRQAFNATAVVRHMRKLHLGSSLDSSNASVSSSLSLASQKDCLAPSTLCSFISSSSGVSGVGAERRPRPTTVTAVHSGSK
Experiment: radiometric filter-binding kinase assay, Kinase HotSpot
Details: compound 0.5 µM; ATP 10 µM
measured.endpoint: residual activity (%)
Number only, in %; omit the unit.

Known results for compounds:
COc1ccc2c(c[n+](C)c3c4cc5c(cc4ccc23)OCO5)c1OC : 105
COc1cc2ncnc(Nc3cccc(Cl)c3)c2cc1OC : 96.6
O=C1NC(=O)C(c2cn(CCCn3ccnc3)c3ccccc23)=C1Nc1ccccc1 : 97.4
Cc1ccc(S(=O)(=O)/C=C/C#N)cc1 : 108
COc1ccc(COc2ccc(Cc3cnc(N)nc3N)cc2OC)cc1 : 93
CCC(=O)Nc1ccc2ncnc(Nc3cccc(Br)c3)c2c1 : 104

Q: What measured residual activity goes with `c1ccc(-c2n[nH]c3c2oc2ccccc23)cc1` ?
Ans: 92.9

Q: What measured residual activity goes with `O=C1Nc2ccc(Cl)cc2/C1=C/c1cc(Cl)c(O)c(Cl)c1` ?
Ans: 104
